Molecular target: hGal8^CTD (Homo sapiens, UniProt O00214)
Sequence (O00214 187-317 limits assumed): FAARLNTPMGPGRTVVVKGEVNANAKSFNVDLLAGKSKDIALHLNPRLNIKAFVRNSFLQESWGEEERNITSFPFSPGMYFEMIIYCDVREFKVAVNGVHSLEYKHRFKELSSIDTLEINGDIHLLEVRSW
Test: Isothermal titration calorimetry (ITC)

>  <molecule>
OC[C@H]1O[C@@H](O[C@H]2[C@H](O)[C@@H](O)C(O)O[C@@H]2CO)[C@H](O)[C@@H](O)[C@H]1O (mixture of isomers)

>  <Kd / µM>
893

$$$$

* * *

Target: hGal7 (human galectin-7) (Homo sapiens, UniProt P47929)
Sequence (P47929 whole entry): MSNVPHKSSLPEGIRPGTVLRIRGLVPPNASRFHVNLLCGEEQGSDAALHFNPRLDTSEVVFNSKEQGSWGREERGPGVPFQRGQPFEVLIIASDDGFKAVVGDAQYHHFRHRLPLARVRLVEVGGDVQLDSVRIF
Assay: Isothermal titration calorimetry (ITC)
pKd: −log10 of the molar value.
endpoint name: pKd

>  <compound>
OC[C@H]1O[C@@H](O[C@H]2[C@H](O)[C@@H](O)C(O)O[C@@H]2CO)[C@H](O)[C@@H](O)[C@H]1O (mixture of isomers)

>  <system under test>
hGal7 (human galectin-7) (Homo sapiens, UniProt P47929)

>  <numeric value>
3.49

$$$$
